measured_on: CDK2 (Homo sapiens)
Construct: purchased Carna Company
method_summary: CDK enzymology experiment in vitro, capillary mobility shift assay (MSA)
Type: biochemical
condition_info: read-out: CDK2 (nM) inhibitory IC50
Entries annotated with measured IC50

molecule: Cn1cnc(S(=O)(=O)N2CCC(Nc3ncc(C#N)c(NC4CCCC4)n3)CC2)c1
IC50: 0.5 to 2.5 nM

molecule: Cc1cc(S(=O)(=O)N2CCC(Nc3ncc(C(F)(F)F)c(O[C@H]4CCOC4)n3)CC2)cnc1N1CCNCC1
IC50: < 0.5 nM

molecule: C[C@H]1CNCCN1c1ccc(S(=O)(=O)N2CCC(Nc3ncc(C(F)(F)F)c(O[C@H]4CCOC4)n3)CC2)cc1
IC50: 0.5 to 2.5 nM

Task: What value of IC50 on CDK2 (Homo sapiens) does O=S(=O)(c1ccc(N2CC3CC(C2)N3)cc1)N1CCC(Nc2ncc(C(F)(F)F)c(O[C@H]3CCOC3)n2)CC1 have?
Output: < 0.5 nM

Task: What value of IC50 on CDK2 (Homo sapiens) does O=S(=O)(c1ccc(N2C3CCC2CNC3)nc1)N1CCC(Nc2ncc(C(F)(F)F)c(O[C@H]3CCOC3)n2)CC1 have?
Output: < 0.5 nM

Task: What value of IC50 on CDK2 (Homo sapiens) does C[C@H]1CN(c2ccc(S(=O)(=O)N3CCC(Nc4ncc(C(F)(F)F)c(O[C@H]5CCOC5)n4)CC3)cc2)CCN1 have?
Output: < 0.5 nM

Task: What value of IC50 on CDK2 (Homo sapiens) does Cc1cc(S(=O)(=O)N2CCC(Nc3ncc(C(F)(F)F)c(O[C@H]4CCOC4)n3)CC2)ccc1C1CCCNC1 (stereo partly shown) have?
Output: < 0.5 nM

Hey, just so you know, these numbers are from patent US20250009745A1.
